Test system: SNB-75 CNS
method_description: NCI-60 one-dose screen, 48 h (100 = growth as untreated, 0 = no growth, -100 = all killed)
settings: 10 µM unless noted
This is part of a sample that, as a whole, favours compounds with a hit. Of some 83,000 tested, about 20% had one in any assay.
// label = Fulfilled if growth is not less than 80%, otherwise Not fulfilled

1. C=C(CNCCO)[C@@H]1CC[C@]2(CO)CC[C@]3(C)[C@H](CC[C@@H]4[C@@]5(C)CCC(NCCc6ccc(O)cc6)C(C)(C)[C@@H]5CC[C@]43C)[C@@H]12 (some centres not stated)
Not fulfilled
2. C=C1C(=O)O[C@H]2[C@H]1CC/C(COC(=O)NCCCCNC(=O)OC/C1=C/CC[C@@]3(C)O[C@H]3[C@H]3OC(=O)C(=C)[C@@H]3CC1)=C\CC[C@@]1(C)O[C@@H]21
Not fulfilled
3. COc1ccc(Nc2ncnc3ccc(-c4cncc(NS(C)(=O)=O)c4)cc23)cc1Cl
Not fulfilled
4. Cc1ccc(S(=O)(=O)OC[C@@]2(C)CC[C@]3(C)CC[C@]4(C)C(=C3C2)C=C[C@@H]2[C@@]3(C)CCCNC(C)(C)[C@@H]3CC[C@]24C)cc1
Fulfilled
5. CCCCC1=C(Br)C(=O)c2nc(C)ccc2C1=O
Fulfilled

Qu. Has `[Cu+].[NH-][C@H]1C[N-]C(=O)[C@H]([C@H]2CCN=C(N)N2)[N-]C(=O)/C(=C\NC(N)=O)[N-]C(=O)[C@H](CNC(=O)C[C@@H](N)CCCN)[N-]C(=O)[C@H](CO)[N-]C1=O` a recorded growth greater than or equal to 80%?
Ans. Fulfilled

Qu. Is it the case that `Cc1c(CC(=O)OCCO)cc(-c2ccc(Cl)cc2)n1-c1ccccc1` has growth reaching or exceeding 80%?
Ans. Not fulfilled

Qu. Given the entry `COc1cc(Cl)cc(-c2nn(C(=O)NS(=O)(=O)c3ccc(Cl)cc3)cc2-c2ccncc2)c1` , answer whether its growth meets or surpasses 80%.
Ans. Not fulfilled

Qu. Has CC12OC(CC(O)C1O)n1c3ccccc3c3c4c(c5c6ccccc6n2c5c31)C(=O)N(CCN1CCOCC1)C4=O (configuration not stated) a recorded growth greater than or equal to 80%?
Ans. Not fulfilled

Qu. // inclusive: growth at least 80%? input: `O=C(/C=C/c1ccc(F)cc1)Nc1ncc(Cc2ccc(F)cc2)s1`
Ans. Not fulfilled

Qu. Is the recorded value of growth equal to or greater than 80% for this compound? `COc1cc(-c2nn(-c3cccc(NC(=O)CCN4CCN(C)CC4)c3)cc2-c2ccncc2)ccc1Cl`
Ans. Not fulfilled

Qu. # check: growth of C/C=C(/C)C(=O)O[C@@H]1CC(C)(C)CC2C34OC(=O)[C@@]21CC[C@@]3(C)[C@]1(C)CCC2C(C)(C)C(=O)CC[C@]2(C)C1C[C@@H]4Cl (some centres not stated) is greater than or equal to 80%
Ans. Not fulfilled

Qu. Does the reported growth for `O=C(Cn1cc(CN2CCN(c3ccnc4cc(Cl)ccc34)CC2)nn1)Nc1cccc([N+](=O)[O-])c1` fall at or above the 80% mark?
Ans. Fulfilled

###

Listed compounds paired with reported growth
Tested on: NCI/ADR-RES ovarian
method_description: NCI-60 one-dose screen, 48 h (100 = growth as untreated, 0 = no growth, -100 = all killed)
settings: 10 µM unless noted
This is part of a sample that, as a whole, favours compounds with a hit. Of some 83,000 tested, about 20% had one in any assay.
Quick reminder: number only, in %, skip the unit.

Guide cases for growth, answers given:
1) N=C(N)c1ccc(-c2ccc(-c3ccc(Cl)c(Cl)c3)s2)cc1
83.5
2) COc1ccc(S(=O)(=O)Nc2cc(Sc3cccc4cccnc34)c(O)c3ccccc23)cc1
11.1
3) O=C(NNc1ccccc1)c1ncc[nH]1
78.6

Qu. Fill in: growth of COc1ccc(/C=N/C2=C(C#N)C(c3ccccc3)c3c(ccc4ccccc34)O2)cc1 (stereo unspecified) is ___
Ans. 10.3

Qu. Reported growth, compound C#CCOCC1CN(C)C(=O)O1 (stereo unspecified) : ____
Ans. 109

Qu. Returns the measured growth for the input compound. Input: CN(C)CCN1C(=O)c2c(c3c4ccccc4n4c3c3c2c2ccccc2n3C2CC(O)C(O)C4(C)O2)C1=O (stereo unspecified)
Ans. 54.5

###

System: OVCAR-5 ovarian
method_description: NCI-60 one-dose screen, 48 h (100 = growth as untreated, 0 = no growth, -100 = all killed)
settings: 10 µM unless noted
This is part of a sample that, as a whole, favours compounds with a hit. Of some 83,000 tested, about 20% had one in any assay.
Listed here: items and their measured growth.
Supply the numeric figure in %, leaving out any unit text.

These solved cases illustrate the format of a correct answer.
1. CCOC(=O)c1c(-c2ccc(C)cc2)c(C#N)c(=O)n(-c2cccc(C(F)(F)F)c2)c1N
93
2. O=C(c1ccc(Nc2nccc(NCCCNc3ccnc4cc(Cl)ccc34)n2)cc1)N1CCCCC1
71.2
3. CN(Cc1ccccc1)c1nc(Cl)c(C2CC(c3ccc(F)cc3)=NN2C=O)s1 (centres undefined)
99.8
4. COc1ccc(NC(=O)Nc2ccccc2CNc2nc(Nc3ccc(OCCN4CCCC4)cc3)ncc2Cl)cc1
21.1
5. COc1c(O)c(O)cc2c3c(oc12)CC(c1ccc2c(c1)OCO2)CC3=O (centres undefined)
116
6. Cc1ccc(/C=C(\C#N)c2cc3ccccc3[nH]2)cc1
65.2
7. COc1cc(/C=C(/c2ccccc2)[N+](=O)[O-])c(OC)c2c1OCO2
-36.7
8. COc1ccc(-c2nn3c(-c4cc(F)c(Cl)cc4Cl)nnc3s2)cc1
59.5
9. COc1ccc(-c2ccc(-c3ccc(C(=N)N)cn3)s2)cc1Cl
-95.5
10. C=C(CNCCc1ccc(O)cc1)[C@@H]1CC[C@]2(CO)CC[C@]3(C)[C@H](CC[C@@H]4[C@@]5(C)CCC(NCCc6ccc(O)cc6)C(C)(C)[C@@H]5CC[C@]43C)[C@@H]12 (some centres undefined)
-86.3

Qu. Could you share which growth value was measured for `N=C(N)c1ccc(-c2ccc(-c3ccc(Cl)c(Cl)c3)s2)cc1` ?
Ans. 15.2

###

Tested on: MDA-MB-435 melanoma
method_description: NCI-60 one-dose screen, 48 h (100 = growth as untreated, 0 = no growth, -100 = all killed)
settings: 10 µM unless noted
Compounds without any hit were thinned out: in the full panel of roughly 83,000, 20% have a hit.
Reported growth values for the following compounds.
Numeric answer only, unit % assumed.

Would you please look over these solved cases?
1. O=C(Nc1ccc(F)cc1)c1cc2cc(Nc3nc(-c4ccccc4)nc4ccccc34)ccc2oc1=O
108
2. COc1c(O)c(O)cc2c3c(oc12)CC(c1ccc2c(c1)OCO2)CC3=O (centres undefined)
39.8
3. Cc1cccc(-c2nnc(SCC(=O)Nc3ncc(Cc4ccccc4)s3)n2N2C(=O)CSC2=S)c1
48.5
4. COc1ccc(-c2cc(-c3cccnc3)nc3sc4c(Cl)nnnc4c23)cc1OC
104
5. O=[N+]([O-])c1cc(C(F)(F)F)ccc1Sc1ccc(C(F)(F)F)cc1[N+](=O)[O-]
21.3

Qu. What value of measured growth is listed for CCOC(=O)C1=C(C)NC(=O)NC1c1c(Cl)n(-c2ccccc2)c2ccccc12 (centres undefined) ?
Ans. 54

Qu. growth lookup needed for `CN1CCN(c2ccc(Nc3ncc(C(N)=O)c(NCCCNC(=O)C4CCC4)n3)cc2)CC1` , thanks.
Ans. 66.9

Qu. Which growth is reported for this compound? Cc1c(O)c(O)cc2c3c(oc12)CC(c1ccc2c(c1)OCO2)CC3=O (centres undefined)
Ans. 105

Qu. Give the measured growth of `C/C(=C(\c1ccc(OCCN2CCOCC2)cc1)c1ccc(OC(=O)C2CCCCC2)cc1)c1ccc(Cl)cc1` .
Ans. 94.4

###

We begin with a simple list: items and their reported growth.
System: SK-MEL-5 melanoma
method_description: NCI-60 one-dose screen, 48 h (100 = growth as untreated, 0 = no growth, -100 = all killed)
settings: 10 µM unless noted
The panel holds about 83,000 compounds, 20% with a hit somewhere; the sample as a whole holds those more often.
Answer format: numeric, % implied, no suffix.

// solved cases for growth follow
1. Clc1cccc(Nc2ncnc3ccc(-c4cncc(-n5cnnn5)c4)cc23)c1
65.8
2. N#Cc1cc(-c2ccnc(Nc3ccc(NC(=O)CCl)cc3)n2)ccc1N1CCCC1
-96
3. C[C@@H]1CC[C@@H]2[C@@H]1[C@H](OC(=O)/C=C/c1ccccc1)[C@]1(c3ccccc3)C[C@@H](NC(=O)CO)[C@@]2(C)O1
97.9
4. O=C(CN1C(=O)S/C(=C\C(Cl)=C\c2ccccc2)C1=O)NC1C=CS(=O)(=O)C1 (stereo not given)
17.1

Here is another compound to look at.
Qu. // lookup growth | system=SK-MEL-5 melanoma | key= `COc1cc(/C=C(/c2ccccc2)[N+](=O)[O-])c(OC)c2c1OCO2`
Ans. -40.9
